These measurements were taken from the supplement of paper PMC6755084.

Entries and their fraction ligated values follow.
B1: F1*; the commonest letter at each place (parent)
chain: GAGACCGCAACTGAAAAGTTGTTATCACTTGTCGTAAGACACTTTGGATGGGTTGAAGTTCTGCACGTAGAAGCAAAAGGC

variants of: B1; test: fraction ligated after 30 min (ligated reads / total reads); higher = more ligase activity; settings: with F1*sub RNA substrate (template-directed ligation), 42 °C
Simply state the number, no unit and no words.

Example variants with recorded fraction ligated:
changes	recorded-result
G31A T45A	0.395
A27C A41T	0.785
G34C T43C	0.78
C26T T44C	0.822
T25A G34C	0.521
T43A T49G	0.797

State the recorded fraction ligated for this entry: A24C C33T
0.697

Then this variant: G31T A57T
0.78

One more variant: T49G G50T
0.667

Input T49C G50C
0.455

Also check T29A G38T
0.87
